# experimentalSystem: SARS-CoV-2 Spike receptor-binding domain (RBD), B.1.1.529 (Omicron) variant (SARS-CoV-2, Omicron B.1.1.529 (BA.1 RBD), strain)
pKd: −log10 of the molar value.
Catalogue of pKd readings, one per entry.

{"binder": "CoV2-YD-13 (VHH) VHH: QVQLVESGGGLVQAGGSLRLSCAASGFTFDDYAIGWFRQAPGKEREGVSCISSSGGFTNYADSVKGRFTISSDNAKNTVYLQMNSLKPEDTAVYYCAVVVNGYGLDEWAYDYWGQGTQVTVS", "pKd": 8.44}
{"binder": "Rescue-2 (VHH) VHH: DVQLVESGGGLVQAGDSLRLSCTASGRTFTTNAMGWFRQAPGKEREFVAAISWNYDTTYYSDPVEGRFTISRDNAKNTVYLQMNSLKPEDTAVYYCFYERLAWDTSTYWGQGTQVTVS", "pKd": 7.57}
{"binder": "Rescue-3 (VHH) VHH: DVQLVESGGGLVQAGDSLRLSCTASGRTFTTNAMGWFRQAPGKEREFVAAISWNSGTTYYSDPVKGRFTISRDNAKNTVYLQMNSLKPEDTAVYYCFYERLAWDTSTYWGQGTQVTVS", "pKd": 7.22}
{"binder": "CoV2-YD-12 (VHH) VHH: QVQLVESGGGLVQAGGSLRLSCAASGSTFSRLNILWWRQAAGKPREWVATSTDGGTRNYAAAVKGRFTISRDNAKNTVYLQMNSLKPEDTAVYYCYTPDYWGQGTQVTVS", "pKd": 9.38}
{"binder": "CoV2-YD-37 (VHH) VHH: DVQLVESGGGLVQAGDSLRLSCTASGRTFTTNAMGWFRQAPGKEREFVAAISWNYDTTYYSDPVEGRFTISRSNAKNTVYLQMNSLKPDDTAVYYCTLRSRFNAAAWTTEAAFDYWGQGTQVTVS", "pKd": 8.81}
{"binder": "Rescue-1 (VHH) VHH: DVQLVESGGGLVQAGDSLRLSCTASGRTFTTNAMGWFRQAPGKEREFVAAITWSYGTTYYSDPVEGRFTISRDNAKNTVYLQMNSLKPEDTAVYYCFYERLAWDTSTYWGQGTQVTVS", "pKd": 8.15}
{"binder": "CoV2-YD-11 (VHH) VHH: QVQLVESGGGLVQAGGSLRLSCVVSGTTFSRYDMGWYRQAPGKARETVATISRSGTTNYAYFVKGRFTITRDNAKNTVYLQMNSLKPEDTAVYYCYIFGLDYWGQGTQVTVS", "pKd": 9.14}
{"binder": "CoV2-YD-38 (VHH) VHH: DVQLVESGGGLVQAGDSLRLSCAASGRTFTTNAMGWFRQAPGKEREFVAAISWNSGTTYYSDPVKGRFTISRDNAKNTVYLQMNSLKPGDTAVYYCTLRSRFNAYAWTTENAFDYWGQGTQVTVS", "pKd": 8.55}
